Reference for the values: patent US5840684A

Test system: Staphylococcus aureus S13E
Type: cell-based
Description: The MIC's were determined using a standard broth micro-dilution assay.
Collected MIC values appear next to each entry.
MEASURE: MIC (µg/mL)

>>> measured_value("CNC(CC(C)C)C(=O)NC1C(=O)NC(CC(N)=O)C(=O)NC2C(=O)NC3C(=O)NC(C(=O)NC(C(=O)O)c4cc(O)cc(O)c4-c4cc3ccc4O)C(OC3CC(C)(N)C(O)C(C)O3)c3ccc(c(Cl)c3)Oc3cc2cc(c3OC2OC(CO)C(O)C(O)C2OC2CC(C)(NCc3ccc(Oc4ccc(OC)cc4)cc3)C(O)C(C)O2)Oc2ccc(cc2Cl)C1O (centres unmarked) [Compound 98]")
0.5
>>> measured_value("CNC(CC(C)C)C(=O)NC1C(=O)NC(CC(N)=O)C(=O)NC2C(=O)NC3C(=O)NC(C(=O)NC(C(=O)O)c4cc(O)cc(O)c4-c4cc3ccc4O)C(OC3CC(C)(N)C(O)C(C)O3)c3ccc(c(Cl)c3)Oc3cc2cc(c3OC2OC(CO)C(O)C(O)C2OC2CC(C)(NCc3cccc(Oc4cccc(C(F)(F)F)c4)c3)C(O)C(C)O2)Oc2ccc(cc2Cl)C1O (centres unmarked) [Compound 203]")
2

###

MIC listing for selected compounds.
Tested on: Streptococcus pyogenes C203
Experiment: broth micro-dilution MIC
Type: cell-based
MEASURE: MIC

>>> measured_value("CC(C)CC(C(=O)NC1C(=O)NC(CC(N)=O)C(=O)NC2C(=O)NC3C(=O)NC(C(=O)NC(C(=O)O)c4cc(O)cc(O)c4-c4cc3ccc4O)C(OC3CC(C)(N)C(O)C(C)O3)c3ccc(c(Cl)c3)Oc3cc2cc(c3OC2OC(CO)C(O)C(O)C2OC2CC(C)(NCc3ccccn3)C(O)C(C)O2)Oc2ccc(cc2Cl)C1O)N(C)Cc1ccccn1 (stereo not drawn)")
"0.5 µg/mL"
>>> measured_value("CC(C)CC(C(=O)NC1C(=O)NC(CC(N)=O)C(=O)NC2C(=O)NC3C(=O)NC(C(=O)NC(C(=O)O)c4cc(O)cc(O)c4-c4cc3ccc4O)C(OC3CC(C)(N)C(O)C(C)O3)c3ccc(c(Cl)c3)Oc3cc2cc(c3OC2OC(CO)C(O)C(O)C2OC2CC(C)(NCc3c4c(cc5ccccc35)CCCC4)C(O)C(C)O2)Oc2ccc(cc2Cl)C1O)N(C)Cc1c2c(cc3ccccc13)CCCC2 (stereo not drawn)")
"≤ 0.06 µg/mL"
>>> measured_value("CNC(CC(C)C)C(=O)NC1C(=O)NC(CC(N)=O)C(=O)NC2C(=O)NC3C(=O)NC(C(=O)NC(C(=O)O)c4cc(O)cc(O)c4-c4cc3ccc4O)C(OC3CC(C)(N)C(O)C(C)O3)c3ccc(c(Cl)c3)Oc3cc2cc(c3OC2OC(CO)C(O)C(O)C2OC2CC(C)(NCCCCc3ccc(OC)cc3)C(O)C(C)O2)Oc2ccc(cc2Cl)C1O (stereo not drawn)")
"≤ 0.06 µg/mL"
>>> measured_value("CNC(CC(C)C)C(=O)NC1C(=O)NC(CC(N)=O)C(=O)NC2C(=O)NC3C(=O)NC(C(=O)NC(C(=O)O)c4cc(O)cc(O)c4-c4cc3ccc4O)C(OC3CC(C)(N)C(O)C(C)O3)c3ccc(c(Cl)c3)Oc3cc2cc(c3OC2OC(CO)C(O)C(O)C2OC2CC(C)(NCc3ccc(C#Cc4ccccc4)cc3)C(O)C(C)O2)Oc2ccc(cc2Cl)C1O (stereo not drawn)")
"≤ 0.06 µg/mL"
>>> measured_value("CCN(CC)CCOc1ccc(CNC2(C)CC(OC3C(Oc4c5cc6cc4Oc4ccc(cc4Cl)C(OC4CC(C)(N)C(O)C(C)O4)C4NC(=O)C(NC(=O)C6NC(=O)C(CC(N)=O)NC(=O)C(NC(=O)C(CC(C)C)NC)C(O)c6ccc(c(Cl)c6)O5)c5ccc(O)c(c5)-c5c(O)cc(O)cc5C(C(=O)O)NC4=O)OC(CO)C(O)C3O)OC(C)C2O)cc1 (stereo not drawn)")
"≤ 0.06 µg/mL"
>>> measured_value("COc1ccc2ccccc2c1CNC1(C)CC(OC2C(Oc3c4cc5cc3Oc3ccc(cc3Cl)C(OC3CC(C)(N)C(O)C(C)O3)C3NC(=O)C(NC(=O)C5NC(=O)C(CC(N)=O)NC(=O)C(NC(=O)C(CC(C)C)N(C)Cc5c(OC)ccc6ccccc56)C(O)c5ccc(c(Cl)c5)O4)c4ccc(O)c(c4)-c4c(O)cc(O)cc4C(C(=O)O)NC3=O)OC(CO)C(O)C2O)OC(C)C1O (stereo not drawn)")
"≤ 0.06 µg/mL"
